Assay: Sodium fluorescein permeability (Pe) of monkey BBB mono- and co-culture models
Type: in vitro ADME
Conditions: cynomolgus monkey (Macaca fascicularis), pH 7.4, monolayer MBEC model (E00); 10 μg/mL Na-F; read-out: endothelial permeability coefficient for sodium fluorescein (Na-F Pe)
Result type: Papp at 10 μg/mL
A complete answer gives the number followed by the unit.

Give the value of Papp at 10 μg/mL reported for the following: O=C1OC2(c3ccc(O)cc3Oc3cc(O)ccc32)c2ccccc21 [Na-F, sodium fluorescein]
2.44 ×10⁻⁶ cm/s

====

Assay: in vitro
Details: cynomolgus monkey (Macaca fascicularis)
Measured Papp A→B at 10 μM, listed per entry.
Return type: number; implicit unit ×10⁻⁶ cm/s.

Worked cases, answers included:
| Structure notation | Observed value |
| --- | --- |
| COc1ccc2c(c1)c(CC(=O)O)c(C)n2C(=O)c1ccc(Cl)cc1 | 32.7 |
| CC[C@]1(O)C[C@@H]2CN(CCc3c([nH]c4ccccc34)[C@@](C(=O)OC)(c3cc4c(cc3OC)N(C)[C@H]3[C@@](O)(C(=O)OC)[C@H](OC(C)=O)[C@]5(CC)C=CCN6CC[C@]43[C@@H]65)C2)C1 | 1.47 |
| CN/C(=N/CCSCc1nc[nH]c1C)NC#N | 3 |

Give the value of Papp A→B at 10 μM reported for the following: Cn1c(=O)c2c(ncn2C)n(C)c1=O
60.5

Attribution: paper PMC8470770
